# measurementTarget: T1, DFNB31_1, Q9P202
# T1 sequence (Q9P202 135-233, limits assumed, looked up): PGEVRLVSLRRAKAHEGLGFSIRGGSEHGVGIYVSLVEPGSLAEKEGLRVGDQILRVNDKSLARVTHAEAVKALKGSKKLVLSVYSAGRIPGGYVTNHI
# procedureSummary: holdup assay
# Set-up: key: below the threshold = too weak to quantify, mostly under pKd 3.1 to 4
# conditionContext: plain residues with an end cap or a label only (N-terminal biotin on a linker: ado-ado)
valueKind: pKd

Input EVEEFPETSV [TRPV3, Q8NET8] . Output pKd: 4.86

Input QPCFNKLFPL [LPXN, O60711] . Output pKd: below the threshold

Input QSLNRMEYIV [JAG1, P78504] . Output pKd: below the threshold

Input VKPQVSESKL [ACOT8, O14734] . Output pKd: 4.29

Input GSGAVEMESV [AQP6, Q13520] . Output pKd: below the threshold

Input RKPKPSSSCC [RAB9A, P51151] . Output pKd: below the threshold

---
Input KKAPTNEFYA [SDC4, P31431] . Output pKd: below the threshold

Input SAAKVLTSMC [GHRHR, Q02643] . Output pKd: below the threshold

Source of measurements: paper PMC9482650
